# PROTOCOL_DESCRIPTION: qHTS assay for small molecule agonists of the p53 signaling pathway (AID 651631); also: nearly all actives have a fitted effect of over 15% in size
# CONDITION_LABEL: HCT-116 p53RE-bla reporter, beta-lactamase FRET ratio, 16 h; series mostly up to 73.3 µM
Inconclusive results are not listed. The source made the active and inactive calls. Calls follow the shape of the full dose curve.
Thanks in advance; please answer with one of these: active, inactive

CC1(S(=O)(=O)O)CC(=O)c2ccccc2C1=O (configuration not stated) ... active

Inquiry: For CC(CN(C)C)CN1c2ccccc2S(=O)(=O)c2ccccc21 (configuration not stated) , which call appears in the assay record?
Reply text: inactive

Inquiry: Record: CC1CC(OC(=O)C(O)c2ccccc2)CC(C)(C)C1 (configuration not stated)
Reply text: inactive

Inquiry: Record: Cc1cc(/C=C/c2ccc3cc(N(C)C)ccc3[n+]2C)c(C)n1-c1ccccc1
Reply text: active

Inquiry: Record: COc1cc2c(cc1OC)CC(=O)N(CCCN(C)C[C@H]1Cc3cc(OC)c(OC)cc31)CC2
Reply text: inactive

Inquiry: Record: Cc1cccc(C)c1NC(=O)NC1=CCCN1C
Reply text: inactive

Inquiry: Record: C[C@]12C=CC(=O)C=C1CC[C@@H]1[C@@H]2[C@@H](O)C[C@@]2(C)[C@H]1CC[C@]2(O)C(=O)COC(=O)CCC(=O)O
Reply text: inactive

Inquiry: Record: CC(C)CN(C[C@@H](O)[C@H](Cc1ccccc1)NC(=O)O[C@@H]1CCOC1)S(=O)(=O)c1ccc(N)cc1
Reply text: inactive
